# Test system: Escherichia coli TOP10
# method-summary: shrunken log2 fold change of peptide-encoding DNA abundance (4.5 h post-induction vs induction); higher = less antimicrobial activity (less host growth inhibition)
# test-conditions: time post-induction: 4.5 h; library: site-saturation at positions 5, 18, 19, 20
Each entry below lists one item and its recorded shrunken log2 fold change value.

Would you please look over these solved cases?
Inquiry: Record request: shrunken log2 fold change value, item RRIRARPPRLPRPRPRPQSGPRP
Reply text: -0.0719

Inquiry: Record request: shrunken log2 fold change value, item RRIRMRPPRLPRPRPRPTFHPRP
Reply text: -0.00995

Inquiry: Record request: shrunken log2 fold change value, item RRIRIRPPRLPRPRPRPEWFPRP
Reply text: 0.00757

Inquiry: Record request: shrunken log2 fold change value, item RRIRKRPPRLPRPRPRPADMPRP
Reply text: 0.399

Inquiry: Record request: shrunken log2 fold change value, item RRIRSRPPRLPRPRPRPATAPRP
Reply text: 0.322

Inquiry: Record request: shrunken log2 fold change value, item RRIRQRPPRLPRPRPRPLECPRP
Reply text: -0.184

Inquiry: Record request: shrunken log2 fold change value, item RRIRPRPPRLPRPRPRPGYQPRP
Reply text: -0.0523

Inquiry: Record request: shrunken log2 fold change value, item RRIRMRPPRLPRPRPRPCNNPRP
Reply text: 0.0654

Others:
Inquiry: Record request: shrunken log2 fold change value, item RRIRERPPRLPRPRPRPTFSPRP
Reply text: -0.216

Inquiry: Record request: shrunken log2 fold change value, item RRIRNRPPRLPRPRPRPGTMPRP
Reply text: 0.0148

Inquiry: Record request: shrunken log2 fold change value, item RRIRPRPPRLPRPRPRPAGAPRP
Reply text: 0.309

Inquiry: Record request: shrunken log2 fold change value, item RRIRIRPPRLPRPRPRPVPHPRP
Reply text: 0.0565

Inquiry: Record request: shrunken log2 fold change value, item RRIRIRPPRLPRPRPRPKTSPRP
Reply text: -0.465

Inquiry: Record request: shrunken log2 fold change value, item RRIRFRPPRLPRPRPRPLPEPRP
Reply text: 0.224

Inquiry: Record request: shrunken log2 fold change value, item RRIRGRPPRLPRPRPRPQSKPRP
Reply text: 0.348

Inquiry: Record request: shrunken log2 fold change value, item RRIRWRPPRLPRPRPRPYNTPRP
Reply text: -0.162

Inquiry: Record request: shrunken log2 fold change value, item RRIRIRPPRLPRPRPRPYAEPRP
Reply text: -0.844

Inquiry: Record request: shrunken log2 fold change value, item RRIRVRPPRLPRPRPRPKCEPRP
Reply text: 0.0936

Inquiry: Record request: shrunken log2 fold change value, item RRIRCRPPRLPRPRPRPYNYPRP
Reply text: -0.914

Inquiry: Record request: shrunken log2 fold change value, item RRIRNRPPRLPRPRPRPGNFPRP
Reply text: -0.0496

Inquiry: Record request: shrunken log2 fold change value, item RRIRQRPPRLPRPRPRPGCYPRP
Reply text: -0.451

Inquiry: Record request: shrunken log2 fold change value, item RRIRDRPPRLPRPRPRPPTGPRP
Reply text: 0.522

====

# Tested on: Escherichia coli TOP10
# method-summary: shrunken log2 fold change of peptide-encoding DNA abundance (4.5 h post-induction vs induction); higher = less antimicrobial activity (less host growth inhibition)
# test-conditions: time post-induction: 4.5 h; library: site-saturation at positions 5, 18, 19, 20
Response field class: string, computed from recorded shrunken log2 fold change by ranges L: < -0.2; M: ≥ -0.2 and < 0.2; H: ≥ 0.2

Inquiry: Class (by measured shrunken log2 fold change) for RRIRHRPPRLPRPRPRPYTIPRP
Reply text: M

Inquiry: Class (by measured shrunken log2 fold change) for RRIRDRPPRLPRPRPRPKDKPRP
Reply text: M

Inquiry: Class (by measured shrunken log2 fold change) for RRIRFRPPRLPRPRPRPLLYPRP
Reply text: L

Inquiry: Class (by measured shrunken log2 fold change) for RRIRLRPPRLPRPRPRPMNEPRP
Reply text: M

Inquiry: Class (by measured shrunken log2 fold change) for RRIRFRPPRLPRPRPRPFASPRP
Reply text: L

Inquiry: Class (by measured shrunken log2 fold change) for RRIRARPPRLPRPRPRPLQWPRP
Reply text: H

Inquiry: Class (by measured shrunken log2 fold change) for RRIRCRPPRLPRPRPRPFDKPRP
Reply text: L

Inquiry: Class (by measured shrunken log2 fold change) for RRIRPRPPRLPRPRPRPHFHPRP
Reply text: M

Inquiry: Class (by measured shrunken log2 fold change) for RRIRKRPPRLPRPRPRPGNCPRP
Reply text: M

Inquiry: Class (by measured shrunken log2 fold change) for RRIRARPPRLPRPRPRPQKRPRP
Reply text: M

Others:
Inquiry: Class (by measured shrunken log2 fold change) for RRIRNRPPRLPRPRPRPIRSPRP
Reply text: L

Inquiry: Class (by measured shrunken log2 fold change) for RRIRKRPPRLPRPRPRPDMWPRP
Reply text: H

Inquiry: Class (by measured shrunken log2 fold change) for RRIRFRPPRLPRPRPRPVDVPRP
Reply text: L

====

# Test system: Escherichia coli TOP10
# method-summary: shrunken log2 fold change of peptide-encoding DNA abundance (4.5 h post-induction vs induction); higher = less antimicrobial activity (less host growth inhibition)
# test-conditions: time post-induction: 4.5 h; library: site-saturation at positions 5, 18, 19, 20
measured-parameter: shrunken log2 fold change

Would you please look over these solved cases?
Inquiry: Record request: shrunken log2 fold change value, item RRIRTRPPRLPRPRPRPAGLPRP
Reply text: 0.0286

Inquiry: Record request: shrunken log2 fold change value, item RRIRVRPPRLPRPRPRPFHDPRP
Reply text: -0.0143

Inquiry: Record request: shrunken log2 fold change value, item RRIRSRPPRLPRPRPRPNWHPRP
Reply text: -0.137

Inquiry: Record request: shrunken log2 fold change value, item RRIRPRPPRLPRPRPRPRLPPRP
Reply text: 0.383

Inquiry: Record request: shrunken log2 fold change value, item RRIRQRPPRLPRPRPRPCNDPRP
Reply text: -0.374

Others:
Inquiry: Record request: shrunken log2 fold change value, item RRIRHRPPRLPRPRPRPGTWPRP
Reply text: -0.0162

Inquiry: Record request: shrunken log2 fold change value, item RRIRKRPPRLPRPRPRPDQEPRP
Reply text: 0.0193

Inquiry: Record request: shrunken log2 fold change value, item RRIRGRPPRLPRPRPRPHMPPRP
Reply text: -0.0535

Inquiry: Record request: shrunken log2 fold change value, item RRIRRRPPRLPRPRPRPVYAPRP
Reply text: 0.21

Inquiry: Record request: shrunken log2 fold change value, item RRIRMRPPRLPRPRPRPMLQPRP
Reply text: 0.196

====

# Test system: Escherichia coli TOP10;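 note: peptides expressed intracellularly from a pBAD plasmid library in pooled LB shake-flask culture, induced with 0.3% L-arabinose, DNA abundance read by NGS, three biological replicates, DESeq2 with apeglm shrinkage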
# method-summary: shrunken log2 fold change of peptide-encoding DNA abundance (4.5 h post-induction vs induction); higher = less antimicrobial activity (less host growth inhibition)
# test-conditions: time post-induction: 4.5 h; library: site-saturation at positions 5, 18, 19, 20
Response field class: string, computed from recorded shrunken log2 fold change by ranges low: < -0.06; medium: ≥ -0.06 and < 0.2; high: ≥ 0.2

Inquiry: Class (by measured shrunken log2 fold change) for RRIRLRPPRLPRPRPRPYEWPRP
Reply text: medium

Inquiry: Class (by measured shrunken log2 fold change) for RRIRHRPPRLPRPRPRPVHAPRP
Reply text: high

Inquiry: Class (by measured shrunken log2 fold change) for RRIRIRPPRLPRPRPRPNIQPRP
Reply text: low

Inquiry: Class (by measured shrunken log2 fold change) for RRIRIRPPRLPRPRPRPAWPPRP
Reply text: high

Inquiry: Class (by measured shrunken log2 fold change) for RRIRDRPPRLPRPRPRPAYEPRP
Reply text: medium

Inquiry: Class (by measured shrunken log2 fold change) for RRIRLRPPRLPRPRPRPHGHPRP
Reply text: low

Others:
Inquiry: Class (by measured shrunken log2 fold change) for RRIRDRPPRLPRPRPRPPMMPRP
Reply text: low

Inquiry: Class (by measured shrunken log2 fold change) for RRIRVRPPRLPRPRPRPMVWPRP
Reply text: medium

Inquiry: Class (by measured shrunken log2 fold change) for RRIRPRPPRLPRPRPRPCQSPRP
Reply text: low

Inquiry: Class (by measured shrunken log2 fold change) for RRIRHRPPRLPRPRPRPKYVPRP
Reply text: low

Inquiry: Class (by measured shrunken log2 fold change) for RRIRKRPPRLPRPRPRPAEWPRP
Reply text: medium

Inquiry: Class (by measured shrunken log2 fold change) for RRIRGRPPRLPRPRPRPHLGPRP
Reply text: high

Inquiry: Class (by measured shrunken log2 fold change) for RRIRIRPPRLPRPRPRPKSEPRP
Reply text: low

Inquiry: Class (by measured shrunken log2 fold change) for RRIRWRPPRLPRPRPRPTQCPRP
Reply text: medium

Inquiry: Class (by measured shrunken log2 fold change) for RRIRERPPRLPRPRPRPICNPRP
Reply text: low

Inquiry: Class (by measured shrunken log2 fold change) for RRIRQRPPRLPRPRPRPESEPRP
Reply text: high

Inquiry: Class (by measured shrunken log2 fold change) for RRIRGRPPRLPRPRPRPFATPRP
Reply text: high

Inquiry: Class (by measured shrunken log2 fold change) for RRIRERPPRLPRPRPRPNTRPRP
Reply text: low

Inquiry: Class (by measured shrunken log2 fold change) for RRIRGRPPRLPRPRPRPELDPRP
Reply text: high

Inquiry: Class (by measured shrunken log2 fold change) for RRIRTRPPRLPRPRPRPMWTPRP
Reply text: medium

Inquiry: Class (by measured shrunken log2 fold change) for RRIRTRPPRLPRPRPRPLRDPRP
Reply text: high

Inquiry: Class (by measured shrunken log2 fold change) for RRIRIRPPRLPRPRPRPRFPPRP
Reply text: medium

Inquiry: Class (by measured shrunken log2 fold change) for RRIRDRPPRLPRPRPRPEWVPRP
Reply text: medium
